The measured values listed here are drawn from ChEMBL document CHEMBL3507680.

test: Human HepG2 cell viability assay in 384 well format; assay type: toxicity, cell-based; design: dose 125 nL, time 70.5 hour; concentration not given beside the values; settings: HepG2 cells, read-out: Inhibition
cytotoxicity at 70.5 h values, listed per item
readout type: cytotoxicity at 70.5 h (%)

chemical_string=C1CC(N2C[C@@H]3COC[C@]3(COCC3CCOCC3)C2)C1 readout_type="cytotoxicity at 70.5 h" scale_unit=% endpoint_value=-1.94
chemical_string=O=c1c(Cc2ccccc2)c(O)ccn1Cc1ccco1 readout_type="cytotoxicity at 70.5 h" scale_unit=% endpoint_value=0.508
chemical_string=Cn1cnc(S(=O)(=O)N2CCCc3cccc(F)c32)c1Cl readout_type="cytotoxicity at 70.5 h" scale_unit=% endpoint_value=-0.174
chemical_string=N[C@@H]1c2ccccc2C2(CCN(C(=O)c3ccc(=O)[nH]c3)CC2)[C@H]1O readout_type="cytotoxicity at 70.5 h" scale_unit=% endpoint_value=-6.66
chemical_string=Cc1cc(NC(=O)NCCc2ccsc2)n(C)n1 readout_type="cytotoxicity at 70.5 h" scale_unit=% endpoint_value=-3.08
chemical_string=C=Cn1ncc(CN2C[C@@H]3CCCN3C[C@@H]2CCSC)c1C readout_type="cytotoxicity at 70.5 h" scale_unit=% endpoint_value=-6.32

###

experiment: Human HepG2 cell viability assay in 384 well format; type: toxicity, cell-based; parameters: dose 125 nL, time 70.5 hour; concentration not given beside the values; settings: HepG2 cells, read-out: Inhibition
The following molecules are shown together with reported cytotoxicity at 70.5 h values.
readout type: cytotoxicity at 70.5 h (%)

molecule="CC(Cn1cccn1)NCc1csc(-c2ccc(F)cc2)n1 (stereo not given)" readout_type="cytotoxicity at 70.5 h" scale_unit=% endpoint_value=5.69
molecule=Cc1cnc(C)c(-c2cccc(-c3ccn(CCN4CCCC4)n3)c2)n1 readout_type="cytotoxicity at 70.5 h" scale_unit=% endpoint_value=11.2
molecule=CCc1ccc(CC(=O)N2CCN(c3nccn3C)CC2)cc1 readout_type="cytotoxicity at 70.5 h" scale_unit=% endpoint_value=8.19
molecule=CNC(=O)COc1c(C(C)=O)ccc(Cl)c1Cl readout_type="cytotoxicity at 70.5 h" scale_unit=% endpoint_value=-8.98
molecule=COCCCNc1c(C#N)c2c(c3nncn13)CN(C)CC2 readout_type="cytotoxicity at 70.5 h" scale_unit=% endpoint_value=-28.4
molecule=CNc1ncc(CN2CCC(c3nnsc3S(C)(=O)=O)CC2)cn1 readout_type="cytotoxicity at 70.5 h" scale_unit=% endpoint_value=-7.26
molecule=CC(C)c1noc(C2CCN(C(=O)c3cccs3)CC2)n1 readout_type="cytotoxicity at 70.5 h" scale_unit=% endpoint_value=-5.14
molecule=CC(C)NC(=O)Cn1cc(OCc2ccc(F)cc2)c(=O)cc1CO readout_type="cytotoxicity at 70.5 h" scale_unit=% endpoint_value=-4.49
molecule=Cc1cnc(CNC(=O)C[C@@H]2COC[C@H]3CN(C4CCC4)C[C@@H]23)cn1 readout_type="cytotoxicity at 70.5 h" scale_unit=% endpoint_value=25.6
molecule="CCc1ccc(CN2CCCC(CO)(CCOC)C2)cc1 (stereo not given)" readout_type="cytotoxicity at 70.5 h" scale_unit=% endpoint_value=-8.83

###

Each item that follows carries a reported cytotoxicity at 70.5 h.
assay: Human HepG2 cell viability assay in 384 well format; assay type: toxicity, cell-based; set-up: dose 125 nL, time 70.5 hour; concentration not given beside the values; settings: HepG2 cells, read-out: Inhibition
readout type: cytotoxicity at 70.5 h (%)

compound=Cc1cccc(CN2C[C@@H](NC(=O)C3CCC3)[C@H]3COC[C@H]32)n1 readout_type="cytotoxicity at 70.5 h" endpoint_value=-5.38
compound=Cc1ccc(C(=O)N2CC[C@]3(C[C@@H](OCc4ccccn4)CO3)C2)nc1 readout_type="cytotoxicity at 70.5 h" endpoint_value=12.9
compound=CS(=O)(=O)N1C[C@H]2CCC[C@@]2(COc2ccccn2)C1 readout_type="cytotoxicity at 70.5 h" endpoint_value=-16.1
compound="CS(=O)(=O)N1CCC(OCCCc2ccccc2)C1 (configuration not stated)" readout_type="cytotoxicity at 70.5 h" endpoint_value=3.28
compound=O=C(NC[C@H]1OC[C@@H](NC2CCC(F)(F)CC2)[C@@H]1O)c1cccs1 readout_type="cytotoxicity at 70.5 h" endpoint_value=-5.94
compound="O=C(NCc1nc(C2CC2)no1)N1CCOC(c2cccc(F)c2)C1 (configuration not stated)" readout_type="cytotoxicity at 70.5 h" endpoint_value=0.958
compound=CCOc1ccc(NC(=O)c2cnc(N3CCCC3)nc2C)cc1 readout_type="cytotoxicity at 70.5 h" endpoint_value=-15.6
compound="Cc1ccc(N2CCCC(N(C)c3ncnc4c3CCC4)C2)nn1 (configuration not stated)" readout_type="cytotoxicity at 70.5 h" endpoint_value=2.74
compound=COc1cccc(C)c1C(=O)N1CCc2ncnc(NCCO)c2CC1 readout_type="cytotoxicity at 70.5 h" endpoint_value=-7.07
compound=O=C([C@H]1C[C@H]2OCC[C@H]2N(Cc2cccnc2)C1)N1CCCO1 readout_type="cytotoxicity at 70.5 h" endpoint_value=0.465
compound=CC(C)Cc1ncc2c(n1)CN(c1cc(N3CCCC3)nc(N)n1)C2 readout_type="cytotoxicity at 70.5 h" endpoint_value=1.59
compound="COCc1cnc2n1CCN(S(=O)(=O)N(C)C)C2C (configuration not stated)" readout_type="cytotoxicity at 70.5 h" endpoint_value=-15.1
